Tested on: HCT116
Assay: cell viability (CellTiter-Glo) relative to plate median (fraction of plate median); higher = more viable cells
Conditions: 5 µM; treatment time 24 h; reporter: TCF4/Wnt
property-measured: cell viability
The response must contain the number and no unit.

Asked: Assign cell viability to the following record: CN1CCN(C2=Nc3cc(Cl)ccc3Nc3ccccc32)CC1
Given back: 1.05

Asked: Assign cell viability to the following record: Cc1cc(=O)oc2cc(O)cc(O)c12
Given back: 1.11

Asked: Assign cell viability to the following record: CCCCCCOc1ccccc1C(N)=O
Given back: 0.954

Asked: Assign cell viability to the following record: CC(c1cc2ccccc2s1)N(O)C(N)=O (stereo not given)
Given back: 1.02

Asked: Assign cell viability to the following record: COc1cc([C@@H]2c3cc4c(cc3[C@@H](O[C@@H]3O[C@@H]5CO[C@@H](C)O[C@H]5[C@H](O)[C@H]3O)[C@H]3COC(=O)[C@H]23)OCO4)cc(OC)c1O
Given back: 0.895
